Target: recombinant human Meningioma Expressed Antigen 5 (MGEA5), also referred to as O-GlcNAcase (OGA) (Homo sapiens)
Construct: Full length OGA enzyme was purchased at OnGene (cat #TP322411); purchased OnGene (so in the source)
Sequence (O60502 whole entry): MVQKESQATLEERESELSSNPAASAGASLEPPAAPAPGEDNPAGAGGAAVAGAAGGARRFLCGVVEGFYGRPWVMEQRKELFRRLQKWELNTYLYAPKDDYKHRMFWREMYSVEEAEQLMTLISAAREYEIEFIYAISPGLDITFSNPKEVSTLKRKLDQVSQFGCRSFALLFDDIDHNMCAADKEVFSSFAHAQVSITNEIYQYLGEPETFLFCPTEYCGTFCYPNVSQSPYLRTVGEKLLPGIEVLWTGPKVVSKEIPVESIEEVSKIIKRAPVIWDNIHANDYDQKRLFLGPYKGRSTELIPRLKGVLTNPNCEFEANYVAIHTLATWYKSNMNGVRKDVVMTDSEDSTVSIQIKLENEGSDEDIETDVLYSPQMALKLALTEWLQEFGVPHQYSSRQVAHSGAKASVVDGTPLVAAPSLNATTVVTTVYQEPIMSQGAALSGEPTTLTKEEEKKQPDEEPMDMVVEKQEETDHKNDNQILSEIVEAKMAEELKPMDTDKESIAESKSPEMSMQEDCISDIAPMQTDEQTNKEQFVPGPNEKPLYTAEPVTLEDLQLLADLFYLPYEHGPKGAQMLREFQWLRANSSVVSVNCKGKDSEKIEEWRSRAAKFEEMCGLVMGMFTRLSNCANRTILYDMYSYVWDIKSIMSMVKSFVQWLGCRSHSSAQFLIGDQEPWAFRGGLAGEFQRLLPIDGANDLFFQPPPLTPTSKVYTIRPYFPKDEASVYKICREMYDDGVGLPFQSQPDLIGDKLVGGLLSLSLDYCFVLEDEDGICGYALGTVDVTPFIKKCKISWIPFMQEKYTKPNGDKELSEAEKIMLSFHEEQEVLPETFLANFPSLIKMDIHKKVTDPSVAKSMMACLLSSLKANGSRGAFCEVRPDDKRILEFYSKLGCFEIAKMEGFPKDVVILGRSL
Assay: OGA biochemical assay (FM-GlcNAc hydrolysis, fluorescence)
Details: full length OGA 2 nM, FM-GlcNAc 100 uM, pH 7.2, 6 h at room temperature; read-out: Enzymatic Emax (%)
Catalogue of Emax values
Field: numeric (%). Do not append units.

{"columns": ["compound", "Emax [%]"],
 "data": [
  ["Cc1cc(C[C@H]2CCCN([C@@H](C)c3cnc4cccnc4c3)C2)cc(C)n1 (single isomer, unassigned)", 102],
  ["Cc1cc(C[C@H]2CCCN(Cc3ccc4cccnc4n3)C2)cc(C)n1", 98.5],
  ["Cc1cc(C[C@H]2CCCN([C@H](C)c3ccc4ccc(C)nc4c3)C2)cc(C)n1 (single isomer, unassigned)", 101],
  ["Cc1cc(C[C@H]2CCCN([C@H](C)c3cnc4cccnc4c3)C2)cc(C)n1 (single isomer, unassigned)", 103],
  ["Cc1cc(C[C@H]2CCCN(Cc3ccc4cccnc4c3)C2)cc(C)n1", 95.8],
  ["Cc1cc(C[C@H]2CCCN(C(C)c3cc4ncccc4cn3)C2)cc(C)n1 (mixture of isomers)", 99.6],
  ["Cc1cc(C[C@H]2CCCN(C(C)c3ccc4nc(O)cnc4c3)C2)cc(C)n1 (mixture of isomers)", 101],
  ["Cc1cc(C[C@H]2CCCN(C(C)c3ccc4cccnc4n3)C2)cc(C)n1 (mixture of isomers)", 101]
]}

Return reported Emax. Input compound: Cc1cc(C[C@H]2CCCN([C@@H](C)c3ccc4ccc(C)nc4c3)C2)cc(C)n1 (single isomer, unassigned)
60.8
